These data points were gathered from ChEMBL document CHEMBL2346578.

- Test system: Enterococcus faecalis
- protocol.notes: Antibacterial activity against vancomycin-resistant Enterococcus faecalis ATCC 51575 assessed as growth inhibition by CLSI broth microdilution method
- Format: functional
measurement.type: MIC90 (µg/mL)
Give the number; µg/mL is assumed, so skip it.

- molecule: "C[N+](C)(C)c1cccc(-c2ccc3c(-c4ccc(C(F)(F)F)cc4)cccc3c2)c1.[I-]"
  MIC90 (µg/mL): 8
- molecule: "C[N+](C)(C)c1ccc(-c2ccc3c(-c4cccc(-c5ccccc5)c4)cccc3c2)cc1.[I-]"
  MIC90 (µg/mL): 2
- molecule: "CC(C)(C)c1ccc(-c2cccc3cc(-c4ccccc4CN=C(N)N)ccc23)cc1"
  MIC90 (µg/mL): 2
- molecule: "C[N+](C)(C)c1ccc(-c2ccc3c(-c4ccc(F)cc4)cccc3c2)cc1.[I-]"
  MIC90 (µg/mL): 4

Let's switch to this molecule now.
## Input What does the record list as MIC90 for `CC(C)(C)c1ccc(-c2cccc3cc(-c4ccc([N+](C)(C)C)cc4)ccc23)cc1.[I-]` ?
## Output 4
